- Tested on: RXF 393 renal
- Protocol summary: NCI-60 one-dose screen, 48 h (100 = growth as untreated, 0 = no growth, -100 = all killed)
- Measurement parameters: 10 µM
About 83,000 compounds went through this panel and 20% of them were active in at least one assay; those are over-represented in the sample as a whole.

{"columns": ["Compound", "Scale unit", "growth"],
 "data": [
  ["Nc1cc2c(cc1Cl)-c1ccc(Cl)cc1C2=O", "%", 131],
  ["O=C(c1ccccc1)C(Sc1ccccc1)c1ccccc1 (configuration not stated)", "%", 80.7],
  ["O=C(/C=C/c1nnc2n(Cc3ccccc3)c(=O)c3c4c(sc3n12)CCCC4)c1ccccc1", "%", 98.3],
  ["CS(=O)(=O)Nc1ccc(OCc2nnc(-c3ccc(Cl)cc3)o2)c(F)c1", "%", 108],
  ["CCCc1c(C)nc2scc(-c3ccc(Cl)cc3)n2c1=O", "%", 92.7],
  ["O=C1/C(=C/c2ccc([N+](=O)[O-])s2)Oc2ccc(Cl)cc21", "%", -63.9],
  ["CCOc1ccc2c(c1)CC[C@@H]1[C@@H]2CC[C@]2(C)[C@@H](O)[C@@H](O)C[C@@H]12", "%", 95.9],
  ["N=C(N)c1ccc(-c2ccc(-c3ccccc3)s2)cc1F", "%", -86.9],
  ["C/C(=N\\NC(=S)N1CCCC1)c1ccccn1", "%", 21.5],
  ["Cc1c(C(=O)N[C@H](CO)Cc2ccccc2)[nH]c2ccc(Cl)cc2c1=O", "%", 122],
  ["COc1cc(-c2nc(-c3nnc(-c4cccnc4)o3)c3ccccn23)cc(OC)c1OC", "%", 115],
  ["COc1ccc(-c2ccc(-c3ccc(C(=N)N)c(F)c3)s2)cc1", "%", -80.4],
  ["Cc1cn(C(=O)/C(Cl)=C(/Cl)C(=O)O)c2ccccc12", "%", 112],
  ["COc1cc(Nc2ccnc(N3CCN(c4ccnc5cc(Cl)ccc45)CC3)n2)cc(OC)c1", "%", -18.3],
  ["O=C/C=C/c1ccc([N+](=O)[O-])cc1Cl", "%", 107],
  ["CC(C)OP(=O)(O)c1ncc(-c2ccc(C(F)(F)F)cc2)c(NC2CCCCCC2)n1", "%", 90.1],
  ["CC(=O)c1c(O)cc2c3c1OC(C)(C)C1CCC(C)(CC31)O2 (configuration not stated)", "%", 94.8],
  ["O=C(N/N=C\\c1cc(Cl)ccc1O)c1ccncc1", "%", 57.4],
  ["CC(C)/C=N/NC(N)=S", "%", 106],
  ["CC1(C)CCc2cc(-c3ccn(S(=O)(=O)c4ccc(Cl)cc4)n3)ccc2O1", "%", 89],
  ["COC(=O)C1(C(=O)OC)C2C(=O)C3C(C21)C3(C(=O)OC(C)(C)C)C(=O)OC(C)(C)C (configuration not stated)", "%", 105],
  ["Cc1cccc2c(Nc3ccc(NS(C)(=O)=O)cc3)c3ccc([N+](=O)[O-])cc3nc12", "%", -31.9]
]}
